Quick reference for fold reduction in affinity against wild type among some binders
- Assayed Target: T1, fluorescently labeled phosphopeptide VNKpSYFND-fluorescein
- T1 peptide: VNK[pS]YFND-fluorescein
- Assay Text: fluorescence polarisation
Square brackets hold non-standard residues; d marks the D form. Ends that are not written are not given here. pS = N[C@@H](COP(=O)(O)O)C(=O)O

| Binder | Result |
| --- | --- |
| BRCA1 BRCT M1652I (domain or fragment, UniProt P38398 1646-1863, looked up) VNKRMSIVVSGLTPEEFMLVYKFARKHHITLTNLITEETTHVVMKTDAEFVCERTLKYFLGIAGGKWVVSYFWVTQSIKERKMLNEHDFEVRGDVVNGRNHQGPKRARESQDRKIFRGLEICCYGPFTNMPTDQLEWMVQLCGASVVKELSSFTLGTGVHPIVVVQPDAWTEDNGFHAIGQMCEAPVVTREWVLDSVALYQCQELDTYLIPQIPHSHY | ~1.4 fold |
| BRCA1 BRCT G1706A (domain or fragment, UniProt P38398 1646-1863, looked up) VNKRMSMVVSGLTPEEFMLVYKFARKHHITLTNLITEETTHVVMKTDAEFVCERTLKYFLAIAGGKWVVSYFWVTQSIKERKMLNEHDFEVRGDVVNGRNHQGPKRARESQDRKIFRGLEICCYGPFTNMPTDQLEWMVQLCGASVVKELSSFTLGTGVHPIVVVQPDAWTEDNGFHAIGQMCEAPVVTREWVLDSVALYQCQELDTYLIPQIPHSHY | ~1.4 fold |
| BRCA1 BRCT G1788D (domain or fragment, UniProt P38398 1646-1863, looked up) VNKRMSMVVSGLTPEEFMLVYKFARKHHITLTNLITEETTHVVMKTDAEFVCERTLKYFLGIAGGKWVVSYFWVTQSIKERKMLNEHDFEVRGDVVNGRNHQGPKRARESQDRKIFRGLEICCYGPFTNMPTDQLEWMVQLCDASVVKELSSFTLGTGVHPIVVVQPDAWTEDNGFHAIGQMCEAPVVTREWVLDSVALYQCQELDTYLIPQIPHSHY | ≤ 1.5 fold |

Read the next record carefully.
Task: Supply reported fold reduction in affinity against wild type belonging to this binder: BRCA1 BRCT R1699W (domain or fragment, UniProt P38398 1646-1863, looked up) VNKRMSMVVSGLTPEEFMLVYKFARKHHITLTNLITEETTHVVMKTDAEFVCEWTLKYFLGIAGGKWVVSYFWVTQSIKERKMLNEHDFEVRGDVVNGRNHQGPKRARESQDRKIFRGLEICCYGPFTNMPTDQLEWMVQLCGASVVKELSSFTLGTGVHPIVVVQPDAWTEDNGFHAIGQMCEAPVVTREWVLDSVALYQCQELDTYLIPQIPHSHY
Output: ~300 fold

Data provenance is paper PMC2888420.
